# assay summary: Solubility of aspirin in solvents
# Type: physicochemical
# recorded conditions: ethanol, organic solvent or mixture; EtOH, 3 °C
outcome measure: solubility (mg/mL)
Numbers only, in mg/mL.

[ask] Entry under review: CC(=O)Oc1ccccc1C(=O)O [aspirin, acetylsalicylic acid] . Reported solubility?
[reply] 63

---

# assay summary: Solubility of aspirin in solvents
# Assay type: physicochemical
# recorded conditions: methanol, organic solvent or mixture; MeOH, 3 °C
outcome measure: solubility

[ask] Recorded solubility of CC(=O)Oc1ccccc1C(=O)O , please.
[reply] 133 mg/mL

---

# assay summary: Solubility of aspirin in solvents
# Assay type: physicochemical
# recorded conditions: methanol, organic solvent or mixture; MeOH, 23 °C
outcome measure: solubility (mg/mL)
Answers are plain numbers, in mg/mL.

[ask] May I ask what solubility has been recorded for CC(=O)Oc1ccccc1C(=O)O [aspirin, acetylsalicylic acid] ?
[reply] 167
